System: Mycobacterium tuberculosis Erdman (autoluminescent)
Assay: AUC25, normalised area under dose response up to IC25 (three-drug combination) (fraction (0-1)); higher = more potent at low dose
Conditions: in vitro model: butyrate; time point: terminal (~4-5 doublings, model-specific)
reported_endpoint: AUC25
Give only the figure.

Q. Field request: AUC25 | item: COc1nc2ccc(Br)cc2cc1[C@@H](c1ccccc1)[C@@](O)(CCN(C)C)c1cccc2ccccc12 [bedaquiline] + CC[C@@H](CO)NCCN[C@@H](CC)CO [ethambutol] + CO[C@H]1/C=C/O[C@@]2(C)Oc3c(C)c(O)c4c(O)c(c(/C=N/N5CCN(C6CCCC6)CC5)c(O)c4c3C2=O)NC(=O)/C(C)=C\C=C\[C@H](C)[C@H](O)[C@@H](C)[C@@H](O)[C@@H](C)[C@H](OC(C)=O)[C@@H]1C [rifapentine]
A. 0.0551

Q. Same again, this time with CC(=O)NC[C@H]1CN(c2ccc(N3CCOCC3)c(F)c2)C(=O)O1 [linezolid] + O=[N+]([O-])c1cn2c(n1)OC[C@@H](OCc1ccc(OC(F)(F)F)cc1)C2 [pretomanid] + NC(=O)c1cnccn1 [pyrazinamide]
A. 0.0881

Q. Same again, this time with COc1c(N2C[C@@H]3CCCN[C@@H]3C2)c(F)cc2c(=O)c(C(=O)O)cn(C3CC3)c12 [moxifloxacin] + O=[N+]([O-])c1cn2c(n1)OC[C@@H](OCc1ccc(OC(F)(F)F)cc1)C2 [pretomanid] + CO[C@H]1/C=C/O[C@@]2(C)Oc3c(C)c(O)c4c(O)c(c(/C=N/N5CCN(C6CCCC6)CC5)c(O)c4c3C2=O)NC(=O)/C(C)=C\C=C\[C@H](C)[C@H](O)[C@@H](C)[C@@H](O)[C@@H](C)[C@H](OC(C)=O)[C@@H]1C [rifapentine]
A. 0.0765

###

Tested on: Mycobacterium tuberculosis Erdman (autoluminescent)
Experiment: FIC50 (Loewe) at 50% inhibition (log2); higher = more antagonistic
Conditions: in vitro model: valerate; time point: terminal (~4-5 doublings, model-specific)
Could you label it 1.0 if measured FIC50 is 0.2 or higher, and 0.0 otherwise?

Q. Form field: FIC50 at least 0.2? Entry: O=[N+]([O-])c1cn2c(n1)OC[C@@H](OCc1ccc(OC(F)(F)F)cc1)C2 [pretomanid] + NC(=O)c1cnccn1 [pyrazinamide]
A. 0.0

Q. Same again, this time with CC[C@@H](CO)NCCN[C@@H](CC)CO [ethambutol] + NC(=O)c1cnccn1 [pyrazinamide]
A. 1.0

Q. Same again, this time with COc1nc2ccc(Br)cc2cc1[C@@H](c1ccccc1)[C@@](O)(CCN(C)C)c1cccc2ccccc12 [bedaquiline] + NC(=O)c1cnccn1 [pyrazinamide]
A. 1.0

Q. Same again, this time with CC(=O)NC[C@H]1CN(c2ccc(N3CCOCC3)c(F)c2)C(=O)O1 [linezolid] + CO[C@H]1/C=C/O[C@@]2(C)Oc3c(C)c(O)c4c(O)c(c(/C=N/N5CCN(C)CC5)c(O)c4c3C2=O)NC(=O)/C(C)=C\C=C\[C@H](C)[C@H](O)[C@@H](C)[C@@H](O)[C@@H](C)[C@H](OC(C)=O)[C@@H]1C [rifampicin]
A. 0.0

Q. Same again, this time with COc1nc2ccc(Br)cc2cc1[C@@H](c1ccccc1)[C@@](O)(CCN(C)C)c1cccc2ccccc12 [bedaquiline] + CC[C@@H](CO)NCCN[C@@H](CC)CO [ethambutol]
A. 1.0

###

Hi there, I'd appreciate the recorded GRinf for every entry that follows.
System: Mycobacterium tuberculosis Erdman (autoluminescent)
Test: GRinf, maximum normalised growth rate inhibition (three-drug combination) (unitless (-1 to 1)); higher = less effect (negative = killing)
Settings: in vitro model: cholesterol-high 0.2 mM; time point: constant (~7 days, model-specific)
Give only the figure.

Q. Field: GRinf (Mycobacterium tuberculosis Erdman (autoluminescent)). Entry: CC(=O)NC[C@H]1CN(c2ccc(N3CCOCC3)c(F)c2)C(=O)O1 [linezolid] + NC(=O)c1cnccn1 [pyrazinamide] + CO[C@H]1/C=C/O[C@@]2(C)Oc3c(C)c(O)c4c(O)c(c(/C=N/N5CCN(C6CCCC6)CC5)c(O)c4c3C2=O)NC(=O)/C(C)=C\C=C\[C@H](C)[C@H](O)[C@@H](C)[C@@H](O)[C@@H](C)[C@H](OC(C)=O)[C@@H]1C [rifapentine]
A. -0.497

Q. Same again, this time with NNC(=O)c1ccncc1 [isoniazid] + COc1c(N2C[C@@H]3CCCN[C@@H]3C2)c(F)cc2c(=O)c(C(=O)O)cn(C3CC3)c12 [moxifloxacin] + CO[C@H]1/C=C/O[C@@]2(C)Oc3c(C)c(O)c4c(O)c(c(/C=N/N5CCN(C)CC5)c(O)c4c3C2=O)NC(=O)/C(C)=C\C=C\[C@H](C)[C@H](O)[C@@H](C)[C@@H](O)[C@@H](C)[C@H](OC(C)=O)[C@@H]1C [rifampicin]
A. -0.196

###

System: Mycobacterium tuberculosis Erdman (autoluminescent)
Experiment: AUC25, normalised area under dose response up to IC25 (fraction (0-1)); higher = more potent at low dose
Settings: in vitro model: valerate; time point: terminal (~4-5 doublings, model-specific)
Hi there, I'd appreciate the recorded AUC25 for every entry that follows.
Give only the figure.

Q. Field: AUC25 (Mycobacterium tuberculosis Erdman (autoluminescent)). Entry: COc1nc2ccc(Br)cc2cc1[C@@H](c1ccccc1)[C@@](O)(CCN(C)C)c1cccc2ccccc12 [bedaquiline] + CC[C@@H](CO)NCCN[C@@H](CC)CO [ethambutol]
A. 0.0819

Q. Same again, this time with CC(C)/N=c1\cc2n(-c3ccc(Cl)cc3)c3ccccc3nc-2cc1Nc1ccc(Cl)cc1 [clofazimine] + CO[C@H]1/C=C/O[C@@]2(C)Oc3c(C)c(O)c4c(O)c(c(/C=N/N5CCN(C6CCCC6)CC5)c(O)c4c3C2=O)NC(=O)/C(C)=C\C=C\[C@H](C)[C@H](O)[C@@H](C)[C@@H](O)[C@@H](C)[C@H](OC(C)=O)[C@@H]1C [rifapentine]
A. 0.0746

Q. Same again, this time with CC(=O)NC[C@H]1CN(c2ccc(N3CCOCC3)c(F)c2)C(=O)O1 [linezolid] + COc1c(N2C[C@@H]3CCCN[C@@H]3C2)c(F)cc2c(=O)c(C(=O)O)cn(C3CC3)c12 [moxifloxacin]
A. 0.0688

Q. Same again, this time with O=[N+]([O-])c1cn2c(n1)OC[C@@H](OCc1ccc(OC(F)(F)F)cc1)C2 [pretomanid] + NC(=O)c1cnccn1 [pyrazinamide]
A. 0.065

Q. Same again, this time with CC(=O)NC[C@H]1CN(c2ccc(N3CCOCC3)c(F)c2)C(=O)O1 [linezolid] + CO[C@H]1/C=C/O[C@@]2(C)Oc3c(C)c(O)c4c(O)c(c(/C=N/N5CCN(C)CC5)c(O)c4c3C2=O)NC(=O)/C(C)=C\C=C\[C@H](C)[C@H](O)[C@@H](C)[C@@H](O)[C@@H](C)[C@H](OC(C)=O)[C@@H]1C [rifampicin]
A. 0.0309

###

Hi there, I'd appreciate the recorded GRinf for every entry that follows.
Test system: Mycobacterium tuberculosis Erdman (autoluminescent)
Experiment: GRinf, maximum normalised growth rate inhibition (three-drug combination) (unitless (-1 to 1)); higher = less effect (negative = killing)
Details: in vitro model: acidic pH 5.7; time point: constant (~7 days, model-specific)
Give only the figure.

Q. Field request: GRinf | item: NNC(=O)c1ccncc1 [isoniazid] + O=[N+]([O-])c1cn2c(n1)OC[C@@H](OCc1ccc(OC(F)(F)F)cc1)C2 [pretomanid] + NC(=O)c1cnccn1 [pyrazinamide]
A. -0.16

Q. Same again, this time with CC(C)/N=c1\cc2n(-c3ccc(Cl)cc3)c3ccccc3nc-2cc1Nc1ccc(Cl)cc1 [clofazimine] + NNC(=O)c1ccncc1 [isoniazid] + O=[N+]([O-])c1cn2c(n1)OC[C@@H](OCc1ccc(OC(F)(F)F)cc1)C2 [pretomanid]
A. -0.0866

Q. Same again, this time with O=[N+]([O-])c1cn2c(n1)OC[C@@H](OCc1ccc(OC(F)(F)F)cc1)C2 [pretomanid] + NC(=O)c1cnccn1 [pyrazinamide] + CO[C@H]1/C=C/O[C@@]2(C)Oc3c(C)c(O)c4c(O)c(c(/C=N/N5CCN(C)CC5)c(O)c4c3C2=O)NC(=O)/C(C)=C\C=C\[C@H](C)[C@H](O)[C@@H](C)[C@@H](O)[C@@H](C)[C@H](OC(C)=O)[C@@H]1C [rifampicin]
A. -0.202

Q. Same again, this time with CC[C@@H](CO)NCCN[C@@H](CC)CO [ethambutol] + COc1c(N2C[C@@H]3CCCN[C@@H]3C2)c(F)cc2c(=O)c(C(=O)O)cn(C3CC3)c12 [moxifloxacin] + CO[C@H]1/C=C/O[C@@]2(C)Oc3c(C)c(O)c4c(O)c(c(/C=N/N5CCN(C6CCCC6)CC5)c(O)c4c3C2=O)NC(=O)/C(C)=C\C=C\[C@H](C)[C@H](O)[C@@H](C)[C@@H](O)[C@@H](C)[C@H](OC(C)=O)[C@@H]1C [rifapentine]
A. 0.0546
